tested.target: OR7D4 (Homo sapiens, UniProt Q8NG98, D296E/E302K/G299D)
Construct: Improved functional expression of modified OR-genes containing the truncated, optimized C-terminus; expressed in transfected cells
Sequence (Q8NG98 with tags, fused parts or gaps D296E/G299D/E302K): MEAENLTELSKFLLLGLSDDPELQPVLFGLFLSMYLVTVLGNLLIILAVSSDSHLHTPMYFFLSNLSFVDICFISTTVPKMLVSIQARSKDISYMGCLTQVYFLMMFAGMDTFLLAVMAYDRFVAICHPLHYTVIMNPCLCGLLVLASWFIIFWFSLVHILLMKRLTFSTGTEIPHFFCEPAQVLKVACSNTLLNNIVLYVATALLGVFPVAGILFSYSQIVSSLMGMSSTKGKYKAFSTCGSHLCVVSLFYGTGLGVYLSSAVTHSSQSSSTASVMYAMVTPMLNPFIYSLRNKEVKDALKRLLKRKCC
procedure.summary: CRE-luciferase assay, HEK cells expressing OR7D4 (wild-type / modified C-terminus)
Type: cell-based
condition.summary: OR7D4 variant, Androstenone
readout.label: EC2 Fold-improvement vs. wild-type

These solved cases illustrate the format of a correct answer.
- substance: "SEQ ID NO: 259 (RNRDMKKAVHKLFGKRCC; source 1..18: note = C-terminal domain sequence)"
  recorded.result: 84.30
- substance: "SEQ ID NO: 286 (RNRDVKKALRKLIGKRCC; source 1..18: note = C-terminal domain sequence)"
  recorded.result: 545.04

[I] SEQ ID NO: 86: optimized C-terminal sequence fused after TM7 of the OR of the assay (RNKEVKDALKRLLKRKCC; source 1..18: note = C-terminal domain sequence)
[II] SEQ ID NO: 287 (RNREVKKAVKKLIRRKCC; source 1..18: note = C-terminal domain sequence)
[III] SEQ ID NO: 269 (RNKDIRKAVKKIFRRKCC; source 1..18: note = C-terminal domain sequence)
[IV] SEQ ID NO: 293 (RNKELRKAIRRLLRRRCC; source 1..18: note = C-terminal domain sequence)
[V] SEQ ID NO: 278 (RNRDVRKALRRLFKKRCC; source 1..18: note = C-terminal domain sequence)
Inquiry: Sort entries by EC2 Fold-improvement vs. wild-type from minimum to maximum value. Answer by writing out the labels in the requested order.
Reply text: IV, III, II, I, V

[I] SEQ ID NO: 298 (RNRDMRKAIRKLFGRKCC; source 1..18: note = C-terminal domain sequence)
[II] SEQ ID NO: 297 (RNRDVRKALKRLLKRKCC; source 1..18: note = C-terminal domain sequence)
Inquiry: Exercise: compare I and II ; which one has the greater EC2 Fold-improvement vs. wild-type? Kindly state the label of the option you pick.
Reply text: II

[P] SEQ ID NO: 290 (RNKDVKKALRRLFGKKCC; source 1..18: note = C-terminal domain sequence)
[Q] SEQ ID NO: 303 (RNRDMKKALKKLFRRRCC; source 1..18: note = C-terminal domain sequence)
[R] SEQ ID NO: 265 (RNRELRKAVRRLFKRRCC; source 1..18: note = C-terminal domain sequence)
Inquiry: Sort entries by EC2 Fold-improvement vs. wild-type from minimum to maximum value. Answer by writing out the labels in the requested order.
Reply text: R, Q, P
(R: 78.45, Q: 150.37, P: 225.85)

[P] SEQ ID NO: 254 (RNREMRKALHRLLGKKCC; source 1..18: note = C-terminal domain sequence)
[Q] SEQ ID NO: 267 (RNRDVKKAVRRLFRRKCC; source 1..18: note = C-terminal domain sequence)
Inquiry: Exercise: compare P and Q ; which one has the greater EC2 Fold-improvement vs. wild-type? Kindly state the label of the option you pick.
Reply text: Q
(Q: 266.97, P: 156.27)
